# melting point annotations
propertyMeasured: melting point

smilesInput | value
CCCCC(=O)Nc1ccc(S(=O)(=O)N[C@H]2CCOC2=O)cc1 | 174 to 176 °C
O=C(Nc1ccc(S(=O)(=O)N[C@H]2CCOC2=O)cc1)c1cccc(Cl)c1 | 213 to 214 °C
O=C(Nc1ccc(S(=O)(=O)N[C@H]2CCOC2=O)cc1)c1ccccc1C(F)(F)F | 186 to 187 °C
CCCCCCCCC(=O)Nc1ccc(S(=O)(=O)N[C@H]2CCOC2=O)cc1 | 150 to 152 °C
CCCC(=O)Nc1ccc(S(=O)(=O)N[C@H]2CCOC2=O)cc1 | 180 to 182 °C

----------
Measured melting point, listed per entry for reference.
propertyMeasured: melting point

smilesInput | propertyMeasured | value
CCCc1ccc(C(=O)Nc2ccc(S(=O)(=O)N[C@H]3CCOC3=O)cc2)cc1 | melting point | 247 to 249 °C
N#Cc1ccc(C(=O)Nc2ccc(S(=O)(=O)N[C@H]3CCOC3=O)cc2)cc1 | melting point | 230 to 231 °C
CCOc1ccc(C(=O)Nc2ccc(S(=O)(=O)N[C@H]3CCOC3=O)cc2)cc1 | melting point | 256 to 258 °C
